- Tested on: normal ECG in rats
- method: Effect on a normal electrocardiogram in rats
- Format: in vivo, rat
- assay.setup: 5 mg/kg iv, 10 min; mean ± SD
measurement.label: HR—heart rate
Answer with a bare number; do not write a unit.

Observe how each entry below is paired with its result.
query_smiles=Cl.NC(=O)c1ccccc1OCCCCCCN1CCN(c2cccc(Cl)c2)CC1 measurement_label="HR—heart rate" numeric_result=279.9
query_smiles=COc1ccccc1N1CCN(CCCCOc2ccccc2C(N)=O)CC1.Cl measurement_label="HR—heart rate" numeric_result=333.2
query_smiles=Cl.NC(=O)c1ccccc1OCCCCCN1CCN(c2cccc(Cl)c2)CC1 measurement_label="HR—heart rate" numeric_result=265.0
query_smiles=COc1ccccc1N1CCN(Cc2cccc(COc3ccccc3C(N)=O)c2)CC1.Cl measurement_label="HR—heart rate" numeric_result=258.8
query_smiles=COc1ccccc1N1CCN(Cc2ccc(COc3ccccc3C(N)=O)cc2)CC1.Cl measurement_label="HR—heart rate" numeric_result=255.2

Please look at the following compound next.
Input: // returns reported HR—heart rate for input Cl.NC(=O)c1ccccc1OCCCCN1CCN(c2cccc(Cl)c2)CC1
Output: 324.6

All values here come from paper PMC9820316.
